Study System: ScRvs167
Test Description: SPOT peptide array binding signal intensity (averaged, normalized) (arbitrary units (background-subtracted, floor 0; scale differs between SH3 domains)); higher = stronger binding of the SH3 domain to the peptide
Everything with SPOT peptide array binding signal intensity lower than 80 is not fulfilled; everything else, including exactly 80, is fulfilled.

Sample answers from the record:
QPQRTAPKPPISAPR
not fulfilled
NPTKSPPPPPSPSTM
not fulfilled
QGYPRQPQRPQRYHP
not fulfilled
RSLRKRPTSPSISGS
not fulfilled
RRTRLRPPTPLSQLL
fulfilled
RRSKSLPTTPGIRSG
not fulfilled
RRLRDKYKLPIVDAD
not fulfilled
QTMRQAPKRPDADVA
fulfilled

[Q] State whether the measured SPOT peptide array binding signal intensity reaches 80, counting equality as reaching it, for "HKVLRPFLLRRLKKD"
[A] not fulfilled

[Q] Check the entry "PSRRDSLSIPRAVDA" : does SPOT peptide array binding signal intensity equal or exceed 80?
[A] not fulfilled

[Q] Threshold query (SPOT peptide array binding signal intensity >= 80) on "GERSRPLVISILSSA"
[A] not fulfilled

[Q] # check: SPOT peptide array binding signal intensity of "LPPPPPPPPPPPLPQ" is greater than or equal to 80
[A] not fulfilled
